System: 855422-203-R-J1-PDC spheroids with HUVEC/MSC, viability
Experiment: Anticancer human tumor 855422-203-R-J1-PDC patient-derived bladder carcinoma cell line growth inhibition [PI3K]
Conditions: second compound 0.316 µM; first compound 0.949 µM; stronger effect = lower value
Exercise: for every item that follows, state its recorded viability, T/C.
Give the value, in units of %, as a plain number.

Identify the reported viability, T/C for the following entry. Cn1cnc2c(F)c(Nc3ccc(Br)cc3Cl)c(C(=O)NOCCO)cc21 + CC(Nc1ncnc2nc[nH]c12)c1cc2cccc(Cl)c2c(=O)n1-c1ccccc1 80.2

Look up viability, T/C of Cn1cnc2c(F)c(Nc3ccc(Br)cc3Cl)c(C(=O)NOCCO)cc21 + COc1c(OCCCN2CCOCC2)ccc2c3n(c(=NC(=O)c4cnc(N)nc4)nc12)CCN3 and report it. 2.2

Please look at this compound and report its viability, T/C: Cn1cnc2c(F)c(Nc3ccc(Br)cc3Cl)c(C(=O)NOCCO)cc21 + Cc1nc(NC(=O)N2CCCC2C(N)=O)sc1-c1ccnc(C(C)(C)C(F)(F)F)c1 61.6

For the compound Cn1cnc2c(F)c(Nc3ccc(Br)cc3Cl)c(C(=O)NOCCO)cc21 + CC(Nc1ccc2c(c1)OCCn1cc(N3C(=O)OCC3C(F)F)nc1-2)C(N)=O , report viability, T/C. 28.6

---

Test system: 855422-203-R-J1-PDC spheroids with HUVEC/MSC, viability
Assay: Anticancer human tumor 855422-203-R-J1-PDC cell line growth inhibition [PI3K]; active = viability on the fitted dose curve at most 10% of control; inactive = the rest;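 further: agents incubated with spheroids for one week before read-out; 100% = DMSO vehicle-treated control wells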
Conditions: second compound 0.316 µM; first compound 0.0316 µM
Use one of these outcomes when replying: 1 (active), 0 (inactive)

// param item: CC(=O)c1c(C)c2cnc(Nc3ccc(N4CCNCC4)cn3)nc2n(C2CCCC2)c1=O + COc1c(OCCCN2CCOCC2)ccc2c3n(c(=NC(=O)c4cnc(N)nc4)nc12)CCN3 ; yields the recorded call 1

Which outcome was entered for the molecule CC(C)NCC(C(=O)N1CCN(c2ncnc3c2C(C)CC3O)CC1)c1ccc(Cl)cc1 (stereo unspecified) + Cc1nc(NC(=O)N2CCCC2C(N)=O)sc1-c1ccnc(C(C)(C)C(F)(F)F)c1 in this test? 0

Could you kindly confirm the outcome this assay logged for Cn1ncc(Cl)c1-c1cc(C(=O)NC(CN)Cc2cccc(F)c2)sc1Cl (stereo unspecified) + Cc1nc(NC(=O)N2CCCC2C(N)=O)sc1-c1ccnc(C(C)(C)C(F)(F)F)c1 ? 0

Answer briefly: the call reported for CCCS(=O)(=O)Nc1ccc(F)c(C(=O)c2c[nH]c3ncc(-c4ccc(Cl)cc4)cc23)c1F + COc1c(OCCCN2CCOCC2)ccc2c3n(c(=NC(=O)c4cnc(N)nc4)nc12)CCN3 in this assay. 0

Which result was noted for this molecule in the test: Cn1ncc(Cl)c1-c1cc(C(=O)NC(CN)Cc2cccc(F)c2)sc1Cl (stereo unspecified) + COc1c(OCCCN2CCOCC2)ccc2c3n(c(=NC(=O)c4cnc(N)nc4)nc12)CCN3 1

Per the assay record, what outcome was assigned to Cn1ncnc1[C@H]1c2n[nH]c(=O)c3cc(F)cc(c23)N[C@@H]1c1ccc(F)cc1 + CC(Nc1ncnc2nc[nH]c12)c1cc2cccc(Cl)c2c(=O)n1-c1ccccc1 ? 0

Hi, sorry to bother you, what did the test record for CC(Cn1ccc(-c2ccc(C#N)c(Cl)c2)n1)NC(=O)c1cc(C(C)O)[nH]n1 (stereo unspecified) + CC(Nc1ncnc2nc[nH]c12)c1cc2cccc(Cl)c2c(=O)n1-c1ccccc1 ? 0

Recorded test outcome, item CCCS(=O)(=O)Nc1ccc(F)c(C(=O)c2c[nH]c3ncc(-c4ccc(Cl)cc4)cc23)c1F + Cc1nc(NC(=O)N2CCCC2C(N)=O)sc1-c1ccnc(C(C)(C)C(F)(F)F)c1 0

Please share the test call associated with Cn1nccc1Nc1nccc(-c2ccn(C(CO)c3ccc(Cl)c(F)c3)c(=O)c2)n1 (stereo unspecified) + COc1c(OCCCN2CCOCC2)ccc2c3n(c(=NC(=O)c4cnc(N)nc4)nc12)CCN3 . 1

Lab log entry: Cn1nccc1Nc1nccc(-c2ccn(C(CO)c3ccc(Cl)c(F)c3)c(=O)c2)n1 (stereo unspecified) + CC(Nc1ncnc2nc[nH]c12)c1cc2cccc(Cl)c2c(=O)n1-c1ccccc1 — outcome as called in the assay? 0

Field: outcome | Entry: CC(Cn1ccc(-c2ccc(C#N)c(Cl)c2)n1)NC(=O)c1cc(C(C)O)[nH]n1 (stereo unspecified) + CC(Nc1ccc2c(c1)OCCn1cc(N3C(=O)OCC3C(F)F)nc1-2)C(N)=O 0

---

System: 855422-203-R-J1-PDC spheroids with HUVEC/MSC, viability
Experiment: Anticancer human tumor 855422-203-R-J1-PDC cell line growth inhibition [PI3K]; active means viability on the fitted dose curve at most 10% of control; inactive means the rest;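 further: agents incubated with spheroids for one week before read-out; 100% = DMSO vehicle-treated control wells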
Conditions: second compound 10 µM; first compound 0.1 µM
Source text: Combinatorial screen of targeted agents with the PI3K inhibitors inavolisib, alpelisib, duvelisib, and copanlisib in multi-cell type tumor spheroids A high-throughput screen of multi-cell type tumor spheroids was designed to identify active combinations of targeted small molecules and PI3K pathway inhibitors. […] Compounds. […] If the clinical Cmax for an agent had not been determined, the highest concentration tested was 10 microM. […]
Respond with a class label; see true (active), false (inactive)

Look up the recorded call for Cn1ncnc1[C@H]1c2n[nH]c(=O)c3cc(F)cc(c23)N[C@@H]1c1ccc(F)cc1 + CC(Nc1ncnc2nc[nH]c12)c1cc2cccc(Cl)c2c(=O)n1-c1ccccc1 in this test. false

Just curious, what result did Cn1ncc(Cl)c1-c1cc(C(=O)NC(CN)Cc2cccc(F)c2)sc1Cl (stereo unspecified) + CC(Nc1ncnc2nc[nH]c12)c1cc2cccc(Cl)c2c(=O)n1-c1ccccc1 get here? false

For this molecule, state the assay outcome: CC1(C)CCC(CN2CCN(c3ccc(C(=O)NS(=O)(=O)c4ccc(NCC5CCOCC5)c([N+](=O)[O-])c4)c(Oc4cnc5[nH]ccc5c4)c3)CC2)=C(c2ccc(Cl)cc2)C1 + Cc1nc(NC(=O)N2CCCC2C(N)=O)sc1-c1ccnc(C(C)(C)C(F)(F)F)c1 false

Write down the call the test reported for this molecule. Item: CNC(=O)c1ccc(N2C(=S)N(c3ccc(C#N)c(C(F)(F)F)c3)C(=O)C2(C)C)cc1F + Cc1nc(NC(=O)N2CCCC2C(N)=O)sc1-c1ccnc(C(C)(C)C(F)(F)F)c1 false

Tell me the recorded outcome of this test for CCCS(=O)(=O)Nc1ccc(F)c(C(=O)c2c[nH]c3ncc(-c4ccc(Cl)cc4)cc23)c1F + CC(Nc1ncnc2nc[nH]c12)c1cc2cccc(Cl)c2c(=O)n1-c1ccccc1 . false

// param item: CC(C)NCC(C(=O)N1CCN(c2ncnc3c2C(C)CC3O)CC1)c1ccc(Cl)cc1 (stereo unspecified) + Cc1nc(NC(=O)N2CCCC2C(N)=O)sc1-c1ccnc(C(C)(C)C(F)(F)F)c1 ; yields the recorded call false

// outcome(item) with item = CC(Cn1ccc(-c2ccc(C#N)c(Cl)c2)n1)NC(=O)c1cc(C(C)O)[nH]n1 (stereo unspecified) + CC(Nc1ncnc2nc[nH]c12)c1cc2cccc(Cl)c2c(=O)n1-c1ccccc1 false

Outcome? CC(C)n1nc(-c2ccc3oc(N)nc3c2)c2c(N)ncnc21 + Cc1nc(NC(=O)N2CCCC2C(N)=O)sc1-c1ccnc(C(C)(C)C(F)(F)F)c1 true

Which outcome was assigned to CC(=O)c1c(C)c2cnc(Nc3ccc(N4CCNCC4)cn3)nc2n(C2CCCC2)c1=O + CC(Nc1ncnc2nc[nH]c12)c1cc2cccc(Cl)c2c(=O)n1-c1ccccc1 in this test? false

Dear colleague, could you share the recorded outcome for C=CC(=O)N1CCN(c2nc(=O)n(-c3c(C)ccnc3C(C)C)c3nc(-c4c(O)cccc4F)c(F)cc23)C(C)C1 (stereo unspecified) + Cc1nc(NC(=O)N2CCCC2C(N)=O)sc1-c1ccnc(C(C)(C)C(F)(F)F)c1 when you have a moment? false

Which outcome was assigned to CCN1CCN(Cc2ccc(Nc3ncc(F)c(-c4cc(F)c5nc(C)n(C(C)C)c5c4)n3)nc2)CC1 + CC(Nc1ncnc2nc[nH]c12)c1cc2cccc(Cl)c2c(=O)n1-c1ccccc1 in this test? false

---

Tested on: 855422-203-R-J1-PDC spheroids with HUVEC/MSC, viability
Test: Anticancer human tumor 855422-203-R-J1-PDC cell line growth inhibition [PI3K]; active = viability on the fitted dose curve at most 10% of control; inactive = the rest;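 further: agents incubated with spheroids for one week before read-out; 100% = DMSO vehicle-treated control wells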
Settings: second compound 0.316 µM; first compound 0.0316 µM
Field 'call' accepts YES for active, NO for inactive

Field: outcome | Entry: CCN1CCN(Cc2ccc(Nc3ncc(F)c(-c4cc(F)c5nc(C)n(C(C)C)c5c4)n3)nc2)CC1 + COc1c(OCCCN2CCOCC2)ccc2c3n(c(=NC(=O)c4cnc(N)nc4)nc12)CCN3 YES

Name the outcome recorded for C#Cc1c(F)ccc2cc(O)cc(-c3ncc4c(N5CC6CCC(C5)N6)nc(OCC56CCCN5CC(F)C6)nc4c3F)c12 (stereo unspecified) + COc1c(OCCCN2CCOCC2)ccc2c3n(c(=NC(=O)c4cnc(N)nc4)nc12)CCN3 in the assay. NO

Each compound tested received a call. Report the one for CC(C)n1nc(-c2ccc3oc(N)nc3c2)c2c(N)ncnc21 + CC(Nc1ccc2c(c1)OCCn1cc(N3C(=O)OCC3C(F)F)nc1-2)C(N)=O . NO

Identify the outcome logged in this assay for the compound shown: CCN1CCN(Cc2ccc(Nc3ncc(F)c(-c4cc(F)c5nc(C)n(C(C)C)c5c4)n3)nc2)CC1 + CC(Nc1ncnc2nc[nH]c12)c1cc2cccc(Cl)c2c(=O)n1-c1ccccc1 NO

Status in this test for CC(C)NCC(C(=O)N1CCN(c2ncnc3c2C(C)CC3O)CC1)c1ccc(Cl)cc1 (stereo unspecified) + CC(Nc1ccc2c(c1)OCCn1cc(N3C(=O)OCC3C(F)F)nc1-2)C(N)=O ? NO

Each compound tested received a call. Report the one for CC1(C)CCC(Nc2ncc(C(F)(F)F)c(-c3c[nH]c4c(P(C)(C)=O)c(C#N)ccc34)n2)CN1 (stereo unspecified) + Cc1nc(NC(=O)N2CCCC2C(N)=O)sc1-c1ccnc(C(C)(C)C(F)(F)F)c1 . NO

For CCCS(=O)(=O)Nc1ccc(F)c(C(=O)c2c[nH]c3ncc(-c4ccc(Cl)cc4)cc23)c1F + CC(Nc1ncnc2nc[nH]c12)c1cc2cccc(Cl)c2c(=O)n1-c1ccccc1 , what call appears in the results of this test? NO

Hi, do you know how CCN1CCN(Cc2ccc(Nc3ncc(F)c(-c4cc(F)c5nc(C)n(C(C)C)c5c4)n3)nc2)CC1 + Cc1nc(NC(=O)N2CCCC2C(N)=O)sc1-c1ccnc(C(C)(C)C(F)(F)F)c1 came out in this test? NO

// outcome(item) with item = Cn1ncc(Cl)c1-c1cc(C(=O)NC(CN)Cc2cccc(F)c2)sc1Cl (stereo unspecified) + CC(Nc1ccc2c(c1)OCCn1cc(N3C(=O)OCC3C(F)F)nc1-2)C(N)=O NO

Given CC1(C)CCC(Nc2ncc(C(F)(F)F)c(-c3c[nH]c4c(P(C)(C)=O)c(C#N)ccc34)n2)CN1 (stereo unspecified) + CC(Nc1ncnc2nc[nH]c12)c1cc2cccc(Cl)c2c(=O)n1-c1ccccc1 , state the outcome it received in this test. NO

Dear all, I need the recorded test outcome for CNC(=O)c1ccc(N2C(=S)N(c3ccc(C#N)c(C(F)(F)F)c3)C(=O)C2(C)C)cc1F + CC(Nc1ncnc2nc[nH]c12)c1cc2cccc(Cl)c2c(=O)n1-c1ccccc1 , thank you. NO

Short answer needed: outcome of this test for CCN1CCN(Cc2ccc(Nc3ncc(F)c(-c4cc(F)c5nc(C)n(C(C)C)c5c4)n3)nc2)CC1 + CC(Nc1ccc2c(c1)OCCn1cc(N3C(=O)OCC3C(F)F)nc1-2)C(N)=O ? NO

Please indicate how the test categorized Cn1nccc1Nc1nccc(-c2ccn(C(CO)c3ccc(Cl)c(F)c3)c(=O)c2)n1 (stereo unspecified) + Cc1nc(NC(=O)N2CCCC2C(N)=O)sc1-c1ccnc(C(C)(C)C(F)(F)F)c1 . NO

Test call for this compound, please: CCCS(=O)(=O)Nc1ccc(F)c(C(=O)c2c[nH]c3ncc(-c4ccc(Cl)cc4)cc23)c1F + CC(Nc1ccc2c(c1)OCCn1cc(N3C(=O)OCC3C(F)F)nc1-2)C(N)=O NO

Assay outcome for C#Cc1c(F)ccc2cc(O)cc(-c3ncc4c(N5CC6CCC(C5)N6)nc(OCC56CCCN5CC(F)C6)nc4c3F)c12 (stereo unspecified) + Cc1nc(NC(=O)N2CCCC2C(N)=O)sc1-c1ccnc(C(C)(C)C(F)(F)F)c1 : what was it? NO

Recorded test outcome, item Cn1ncnc1[C@H]1c2n[nH]c(=O)c3cc(F)cc(c23)N[C@@H]1c1ccc(F)cc1 + CC(Nc1ccc2c(c1)OCCn1cc(N3C(=O)OCC3C(F)F)nc1-2)C(N)=O NO

Hi, sorry to bother you, what did the test record for CC(C)n1nc(-c2ccc3oc(N)nc3c2)c2c(N)ncnc21 + CC(Nc1ncnc2nc[nH]c12)c1cc2cccc(Cl)c2c(=O)n1-c1ccccc1 ? NO

Hi, do you know how CC(C)n1nc(-c2ccc3oc(N)nc3c2)c2c(N)ncnc21 + COc1c(OCCCN2CCOCC2)ccc2c3n(c(=NC(=O)c4cnc(N)nc4)nc12)CCN3 came out in this test? YES

Which outcome was entered for the compound CC(C)NCC(C(=O)N1CCN(c2ncnc3c2C(C)CC3O)CC1)c1ccc(Cl)cc1 (stereo unspecified) + CC(Nc1ncnc2nc[nH]c12)c1cc2cccc(Cl)c2c(=O)n1-c1ccccc1 in this test? NO

Which result was noted for this compound in the test: C[C@@H](NC(=O)c1ncnc(N)c1Cl)c1ncc(C(=O)Nc2cc(C(F)(F)F)c(Cl)cn2)s1 + COc1c(OCCCN2CCOCC2)ccc2c3n(c(=NC(=O)c4cnc(N)nc4)nc12)CCN3 NO

Per the assay record, what outcome was assigned to CC1(C)CCC(CN2CCN(c3ccc(C(=O)NS(=O)(=O)c4ccc(NCC5CCOCC5)c([N+](=O)[O-])c4)c(Oc4cnc5[nH]ccc5c4)c3)CC2)=C(c2ccc(Cl)cc2)C1 + Cc1nc(NC(=O)N2CCCC2C(N)=O)sc1-c1ccnc(C(C)(C)C(F)(F)F)c1 ? NO
